# RUN_DESCRIPTION: Fraction bound to serum proteins
# Assay type: in vitro ADME
# MEASUREMENT_CONDITIONS: human
Bridge positions count the residues as written; N and C are the ends. Square brackets hold non-standard residues; d marks the D form. 2Nal = N[C@@H](Cc1ccc2ccccc2c1)C(=O)O; Cit = NC(=O)NCCC[C@H](N)C(=O)O
VALUE_TYPE: fraction unbound

(Q) # query: fraction unbound of entry cyclo([2Nal]CY[Cit]KVCPKILQRCRRDSDCPGACICRGNGYCGSYR[Cit]CRG[dP]RR) (disulfide 2-38, 7-24, 14-26, 20-32) [MCo-CVX-5c]
(A) < 0.01
